All values here come from patent US10030016B2.

The following compounds are listed with their measured pEC50 values.
# System: phospho-akt (Thr308) in PC-3 cells
# Run description: Inhibition of phospho-akt (Thr308) in PC-3 cells, MSD phospho-akt 308 ELISA kit
# Type: cell-based
# Test conditions: Homo sapiens; inhibition of P308 Akt in PC-3 cells using MSD, 2 hours, no serum; read-out: EC50
pEC50: −log10 of the molar value.
Quantity kind: pEC50

1) C[C@H](NC(=O)c1cc(C#N)cnc1NCc1ccc(-c2cnc(N)c(OC(F)F)c2)cc1)c1ccc(F)cc1: > 6.00
2) C[C@H](NC(=O)c1cccnc1NCc1ccc(-c2cnc(N)cn2)cc1)c1ccc(F)c(F)c1: 5.00 to 6.00
3) C[C@H](NC(=O)c1cc(C#N)cnc1NCc1ccc(-c2nn(C)c3ncnc(N)c23)cc1)c1ccc(F)cc1: 5.00 to 6.00
4) C[C@H](NC(=O)c1nc(C#N)cnc1NCc1ccc(-c2cn(CCCN(C)C)c3ncnc(N)c23)cc1)c1ccc(F)c(F)c1: 5.00 to 6.00
5) C[C@H](NC(=O)c1nc(C#N)cnc1NCc1ccc(-c2cnc(NCCO)cn2)cc1)c1ccc(F)c(F)c1: 5.00 to 6.00
6) CNc1n[nH]c2ncc(-c3ccc(CNc4ncc(C#N)nc4C(=O)N[C@@H](C)c4ccc(F)c(F)c4)cc3)cc12: > 6.00
7) Nc1ccc(-c2ccc(CNc3ncccc3C(=O)NCc3cncc(F)c3)cc2)cn1: 5.00 to 6.00
